// reported TGIR per item
Test system: Mus musculus
Experiment: Percent of tumor growth inhibition ratio (TGIR)of the compound administered intravenously at dose 100 ug/kg(on day 7, 11,15) in subcutaneously infected BDF1 mice on day 22
Type: functional
Respond with the bare value in %.

Illustrative cases are given below, each with its answer.
CCCCCCCCCCCCCC(=O)N[C@@H](CO[C@H]1O[C@@H](CO)[C@H](O)[C@H](O)[C@@H]1O)[C@@H](O)CCCCCCCCCCCCC	13.1
CCCCCCCCCCCCCC(=O)N[C@H](CO[C@H]1O[C@@H](CO)[C@H](O)[C@H](O)[C@@H]1O)[C@@H](O)CCCCCCCCCCCCC	40.1
CCCCCCCCCCCCCCCCCCCCCCCCCC(=O)N[C@@H](CO[C@H]1O[C@@H](CO)[C@H](O)[C@H](O)[C@@H]1O)[C@H](O)[C@H](O)CCCCCCCCCCCCCC	-3.8
CCCCCCCCCCCCCCCCCCCCCCCCCC(=O)N[C@@H](CO[C@H]1O[C@H](CO)[C@H](O)[C@H](O)[C@H]1O)[C@H](O)[C@H](O)CCCCCCCCCCCCCC [RGI-7000]	40.2
CCCCCCCCCCCCCC(=O)N[C@@H](CO[C@H]1O[C@@H](CO)[C@H](O)[C@H](O)[C@@H]1O)[C@H](O)CCCCCCCCCCCCC	67.9

Now consider the entry below.
Find the measured TGIR: item `CCCCCCCCCCCCCC(=O)N[C@H](CO[C@H]1O[C@@H](CO)[C@H](O)[C@H](O)[C@@H]1O)[C@H](O)CCCCCCCCCCCCC` , target or system Mus musculus.
5.1

====

Test system: Mus musculus
Test: Evaluated for life span prolonging effects against female BDF1 mice infected intraperitoneally 1x10E6 P388 cells on day 0 at intravenous dose 0.1 mg/kg on day 1,5,9
Format: functional
observable: T/C (%)
Respond with the bare value in %.

CCCCCCCCCCCCCCCCCCCCCC[C@@H](O)C(=O)N[C@@H](CO[C@H]1O[C@@H](CO)[C@H](O)[C@H](O)[C@@H]1O)[C@H](O)[C@H](O)CCCCCCCCCCCC	106
CCCCCCCCCCCCCCCCCCCCCCC[C@@H](O)C(=O)N[C@@H](CO[C@H]1O[C@@H](CO)[C@H](O)[C@H](O)[C@@H]1O)[C@H](O)[C@H](O)CCCCCCCCCCCC(C)CC (stereo not given in full)	108
CCCCCCCCCCCCCCCCCCCCCC[C@@H](O)C(=O)N[C@@H](CO[C@H]1O[C@@H](CO)[C@H](O)[C@H](O)[C@@H]1O)[C@H](O)[C@H](O)CCCCCCCCCCCC(C)C	109
CCCCCCC/C=C/C(C)=C/CC/C=C/[C@@H](O)[C@H](CO[C@H]1O[C@@H](CO)[C@H](O)[C@H](O)[C@@H]1O)NC(=O)[C@H](O)CCCCCCCCCCCCCCCCCCCCCC	109

Now consider the entry below.
T/C for CCCCCCCCCCCCCCCCCCCCCC[C@@H](O)C(=O)N[C@@H](CO[C@H]1O[C@@H](CO)[C@H](O)[C@H](O)[C@@H]1O)[C@H](O)[C@H](O)CCCCCCCCCCCC(C)CC (stereo not given in full) ?
108

====

// reported TGIR per item
Test system: Mus musculus
Assay: Percent of tumor growth inhibition ratio (TGIR)of the compound administered intravenously at dose 100 ug/kg(on day 7, 11,15) in subcutaneously infected BDF1 mice on day 14
Type: functional
Respond with the bare value in %.

CCCCCCCCCCCCCC(=O)N[C@H](CO[C@H]1O[C@@H](CO)[C@H](O)[C@H](O)[C@@H]1O)[C@H](O)CCCCCCCCCCCCC	13
CCCCCCCCCCCCCC(=O)N[C@@H](CO[C@H]1O[C@@H](CO)[C@H](O)[C@H](O)[C@@H]1O)[C@H](O)CCCCCCCCCCCCC	66.6
CCCCCCCCCCCCCCCCCCCCCCCCCC(=O)N[C@@H](CO[C@H]1O[C@H](CO)[C@H](O)[C@H](O)[C@H]1O)[C@H](O)[C@H](O)CCCCCCCCCCCCCC [RGI-7000]	50.9
CCCCCCCCCCCCCCCCCCCCCCCCCC(=O)N[C@@H](CO[C@H]1O[C@@H](CO)[C@H](O)[C@H](O)[C@@H]1O)[C@H](O)[C@H](O)CCCCCCCCCCCCCC	17.2

TGIR for `CCCCCCCCCCCCCC(=O)N[C@@H](CO[C@H]1O[C@@H](CO)[C@H](O)[C@H](O)[C@@H]1O)[C@@H](O)CCCCCCCCCCCCC` ?
4.9

TGIR for `CCCCCCCCCCCCCC(=O)N[C@H](CO[C@H]1O[C@@H](CO)[C@H](O)[C@H](O)[C@@H]1O)[C@@H](O)CCCCCCCCCCCCC` ?
52.6

====

System: Mus musculus
Assay: Percent of tumor growth inhibition ratio (TGIR)of the compound administered intravenously at dose 100 ug/kg on day 1, 5, 9 in subcutaneously (murine fibrosarcoma Meth A cells) infected in BDF1 mice on day 20
Assay type: functional
observable: TGIR (%)
Respond with the bare value in %.

CCCCCCCCCCCCCCC[C@@H](O)[C@H](CO[C@H]1O[C@@H](CO)[C@H](O)[C@H](O)[C@@H]1O)NC(=O)CCCCCCCCCCCCC (stereo in doubt; form 1)	3.9
CCCCCCCCCCCCCCC[C@@H](O)[C@H](CO[C@H]1O[C@@H](CO)[C@H](O)[C@H](O)[C@@H]1O)NC(=O)CCCCCCCCCCCCC (stereo in doubt; form 2)	7
CCCCCCCCCCCCCCC[C@@H](O)[C@H](CO[C@H]1O[C@@H](CO)[C@H](O)[C@H](O)[C@@H]1O)NC(=O)CCCCCCCCCCCCC (stereo in doubt; form 3)	21.3

TGIR for CCCCCCCCCCCCCCC[C@@H](O)[C@H](CO[C@H]1O[C@@H](CO)[C@H](O)[C@H](O)[C@@H]1O)NC(=O)CCCCCCCCCCCCC (stereo in doubt; form 4) ?
36.7

====

Species on record: Mus musculus
Assay: Evaluated for lymphocyte proliferation stimulatory effect in BALB/c mice and percent control of [3H]-TdR incorporation using allogenic mixed lymphocyte reaction (MLR) at a dose 10 ng/ml
Assay type: functional
observable: Control (%)
Respond with the bare value in %.

Illustrative cases are given below, each with its answer.
CCCCCCCCCCCCCCCCCCCCCC[C@@H](O)C(=O)N[C@@H](CO[C@H]1O[C@@H](CO)[C@H](O)[C@H](O)[C@@H]1O)[C@H](O)[C@H](O)CCCCCCCCCCCC(C)C	220
CCCCCCC/C=C/C(C)=C/CC/C=C/[C@@H](O)[C@H](CO[C@H]1O[C@@H](CO)[C@H](O)[C@H](O)[C@@H]1O)NC(=O)[C@H](O)CCCCCCCCCCCCCCCCCCCCCC	134
CCCCCCCCCCCCCCCCCCCCCC[C@@H](O)C(=O)N[C@@H](CO[C@H]1O[C@@H](CO)[C@H](O)[C@H](O)[C@@H]1O)[C@H](O)[C@H](O)CCCCCCCCCCCC	258
CCCCCCCCCCCCCCCCCCCCCCC[C@@H](O)C(=O)N[C@@H](CO[C@H]1O[C@@H](CO)[C@H](O)[C@H](O)[C@@H]1O)[C@H](O)[C@H](O)CCCCCCCCCCCC(C)CC (stereo not given in full)	281

Now consider the entry below.
Control for CCCCCCCCCCCCCCCCCCCCCC[C@@H](O)C(=O)N[C@@H](CO[C@H]1O[C@@H](CO)[C@H](O)[C@H](O)[C@@H]1O)[C@H](O)[C@H](O)CCCCCCCCCCCC(C)CC (stereo not given in full) ?
209

====

// reported Survival per item
Test system: Mus musculus
Test: Evaluated for life span prolonging effects against female BDF1 mice infected intraperitoneally 1x10E6 murine melanoma B16 cells on day 0 at dose of 0.1 mg/kg
Assay type: functional
Settings: route intraperitoneal

Illustrative cases are given below, each with its answer.
CCCCCCCCCCCCCCCCCCCCCC[C@@H](O)C(=O)N[C@@H](CO[C@H]1O[C@@H](CO)[C@H](O)[C@H](O)[C@@H]1O)[C@H](O)[C@H](O)CCCCCCCCCCCC	26.8 days
CCCCCCCCCCCCCCCCCCCCCC[C@@H](O)C(=O)N[C@@H](CO[C@H]1O[C@@H](CO)[C@H](O)[C@H](O)[C@@H]1O)[C@H](O)[C@H](O)CCCCCCCCCCCC(C)C	27.6 days
CCCCCCCCCCCCCCCCCCCCCCC[C@@H](O)C(=O)N[C@@H](CO[C@H]1O[C@@H](CO)[C@H](O)[C@H](O)[C@@H]1O)[C@H](O)[C@H](O)CCCCCCCCCCCC(C)CC (stereo not given in full)	28 days
CCCCCCCCCCCCCCCCCCCCCC[C@@H](O)C(=O)N[C@@H](CO[C@H]1O[C@@H](CO)[C@H](O)[C@H](O)[C@@H]1O)[C@H](O)[C@H](O)CCCCCCCCCCCC(C)CC (stereo not given in full)	28.2 days

Survival for `CCCCCCC/C=C/C(C)=C/CC/C=C/[C@@H](O)[C@H](CO[C@H]1O[C@@H](CO)[C@H](O)[C@H](O)[C@@H]1O)NC(=O)[C@H](O)CCCCCCCCCCCCCCCCCCCCCC` ?
21.3 days
